# Tested on: Septoria tritici—SEPTTR
# procedure_details: Leaf Blotch of Wheat, in vivo whole plant, 24 Hour Protectant
# condition: 100 ppm spray, 24 hour protectant, wheat; control of fungal infection vs untreated plants
recorded_endpoint: SEPTTR in vivo 1 Day Protectant

compound="COc1ccnc(C(=O)NCC#Cc2ccccc2)c1O [Compound 240]" observed_result="+ +"
compound="COc1ccnc(C(=O)NC2C3CC4C(C3Cl)C42)c1O (stereo not shown) [Compound 304]" observed_result="+ +"
compound="COc1ccnc(C(=O)NC2CC(C)(C)/C=C\\CC(C)(C)C2)c1O (stereo not shown) [Compound 283]" observed_result="+ +"
compound="COc1ccnc(C(=O)NC2C(=O)c3ccc(-c4ccco4)cc3OC2C)c1O (stereo not shown) [Compound 323]" observed_result="+ +"
compound="COc1ccnc(C(=O)NC2CC(C)(C)C(Oc3cc(C(F)(F)F)cc(C(F)(F)F)n3)C(C)(C)C2)c1O (stereo not shown) [Compound 272]" observed_result="+ +"
compound="COc1ccnc(C(=O)NC2CC(C)(C)CCCC2C)c1O (stereo not shown) [Compound 277]" observed_result="+ +"
compound="COc1ccnc(C(=O)N[C@@H]2C[C@@H](O[Si](C)(C)C(C)(C)C)O[C@@H](C)[C@@H]2OC)c1O [Compound 326]" observed_result="+ +"
compound="CCC1(C)CC(NC(=O)c2nccc(OC)c2O)CC(C)(C)C1 (stereo not shown) [Compound 251]" observed_result="+ +"
compound="COc1ccnc(C(=O)N[C@H]2CC3CC2[C@@H](COCc2cccc(C(F)(F)F)c2)C3)c1O (stereo partly shown) [Compound 295]" observed_result="+ +"

* * *

# Test system: Erysiphe graminis—ERYSGT
# procedure_details: Powdery Mildew of Wheat, in vivo whole plant, 24 Hour Protectant
# condition: Erysiphe; wheat plants sprayed at 100 ppm, inoculated after 24 hours; control of fungal infection vs untreated plants; read-out: ERYSGT in vivo 1 Day Protectant
recorded_endpoint: pest or weed control at 100 ppm

compound="COc1ccc(C(C)NC(=O)c2nc(Br)ccc2O)cc1 (stereo not shown) [Compound 486]" observed_result="< 25%"
compound="COCCC(=O)Oc1cccnc1C(=O)N[C@H]1COC(=O)[C@H](Cc2ccccc2)[C@@H](OC(=O)C(C)C)[C@H](C)OC1=O [Compound 569]" observed_result="< 25%"
compound="COC(=O)C(COC(=O)COCc1ccccc1)NC(=O)c1nccc(OC)c1OC(C)=O (stereo not shown) [Compound 585]" observed_result="< 25%"
compound="O=C(Nc1ccc(Oc2cccc(C(F)(F)F)c2)cc1)c1nscc1O [Compound 551]" observed_result="25 to 74%"

* * *

# melting point listing for each entry below
recorded_endpoint: melting point

chem_smiles=COc1ccnc(C(=O)Nc2ccc(OC3CC(C)(C)OC(C)(C)C3)cc2)c1O recorded_endpoint="melting point" observed_result="161 to 163 °C"
chem_smiles=COc1ccnc(C(=O)N[C@@H]2CCCC[C@H]2SC)c1O recorded_endpoint="melting point" observed_result="113 to 115 °C"
chem_smiles=COCCC(=O)Oc1c(OC)ccnc1C(=O)N[C@H]1COC(=O)[C@H](Cc2ccccc2)[C@@H](OC(=O)C(C)(C)C)[C@H](C)OC1=O recorded_endpoint="melting point" observed_result="144 to 145 °C"
chem_smiles=O=C(NCc1cccc2ccccc12)c1ncccc1O recorded_endpoint="melting point" observed_result="106 to 109 °C"
chem_smiles=COc1cccc(CNC(=O)c2ncccc2O)c1 recorded_endpoint="melting point" observed_result="41 to 43 °C"
chem_smiles=COc1ccnc(C(=O)Nc2ccc(Sc3cccc(C(F)(F)F)c3)cc2)c1OC(C)=O recorded_endpoint="melting point" observed_result="134 to 136 °C"
chem_smiles=Cc1ccc(C(=O)NC2CC(C)(C)CC(C)(C)C2)c(O)n1 recorded_endpoint="melting point" observed_result="307 to 308 °C"
chem_smiles=Cc1ccc(C(=O)N[C@H]2COC(=O)[C@H](Cc3ccccc3)[C@@H](OC(=O)C(C)C)[C@H](C)OC2=O)c(O)n1 recorded_endpoint="melting point" observed_result="247 to 250 °C"
chem_smiles=O=C(Nc1ccc(Oc2ccccc2)cc1)c1cccnc1O recorded_endpoint="melting point" observed_result="223 to 224 °C"

* * *

# Test system: Septoria tritici—SEPTTR
# procedure_details: Leaf Blotch of Wheat, in vivo whole plant, 24 Hour Protectant
# condition: Zymoseptoria tritici, 24 h, wheat plants sprayed at 100 ppm, inoculated after 24 hours; control of fungal infection vs untreated plants; read-out: SEPTTR in vivo 1 Day Protectant
# pest or weed control at 100 ppm listing for each entry below
recorded_endpoint: pest or weed control at 100 ppm

molecule="CC(C)C(=O)O[C@H]1[C@H](C)OC(=O)[C@@H](NC(=O)c2cncnc2O)COC(=O)[C@@H]1Cc1ccccc1 [Compound 540]" recorded_endpoint="pest or weed control at 100 ppm" observed_result="25 to 74%"
molecule="CC(C)(C)C1CCC(NC(=O)c2cnccc2O)CC1 (centres unmarked) [Compound 504]" recorded_endpoint="pest or weed control at 100 ppm" observed_result="< 25%"
molecule="COc1ccnc(C(=O)NC2CC(C)(C)CC(C)(C#N)C2)c1OC(C)=O (centres unmarked) [Compound 574]" recorded_endpoint="pest or weed control at 100 ppm" observed_result="25 to 74%"
molecule="CC(C)(C)CNC(=O)c1cccnc1O [Compound 514]" recorded_endpoint="pest or weed control at 100 ppm" observed_result="< 25%"
molecule="COc1ccnc(C(=O)N[C@H]2CO[C@H](C(C)Cc3ccc(C(C)(C)C)cc3)OC2)c1OC(C)=O (some centres unmarked) [Compound 594]" recorded_endpoint="pest or weed control at 100 ppm" observed_result="25 to 74%"
molecule="O=C(Nc1ccc(Oc2cccc(C(F)(F)F)c2)cc1)c1cscc1O [Compound 555]" recorded_endpoint="pest or weed control at 100 ppm" observed_result="25 to 74%"
molecule="CC1(C)CC(NC(=O)c2cncnc2O)CC(C)(C)C1 [Compound 539]" recorded_endpoint="pest or weed control at 100 ppm" observed_result="25 to 74%"
molecule="CC(NC(=O)c1nc(Br)ccc1O)c1ccc(Oc2ccccc2)cc1 (centres unmarked) [Compound 490]" recorded_endpoint="pest or weed control at 100 ppm" observed_result="25 to 74%"
molecule="CC(C)C(=O)O[C@H]1[C@H](C)OC(=O)[C@@H](NC(=O)c2nnccc2O)COC(=O)[C@@H]1Cc1ccccc1 [Compound 532]" recorded_endpoint="pest or weed control at 100 ppm" observed_result="25 to 74%"
molecule="CC(C)C(=O)O[C@H]1[C@H](C)OC(=O)[C@@H](NC(=O)c2conc2O)COC(=O)[C@@H]1Cc1ccccc1 [Compound 561]" recorded_endpoint="pest or weed control at 100 ppm" observed_result="25 to 74%"
molecule="O=C(NCc1ccc(Cl)cc1)c1ccncc1O [Compound 507]" recorded_endpoint="pest or weed control at 100 ppm" observed_result="< 25%"
molecule="CC(NC(=O)c1nc(Br)ccc1O)c1ccc(C(F)(F)F)cc1 (centres unmarked) [Compound 488]" recorded_endpoint="pest or weed control at 100 ppm" observed_result="25 to 74%"
molecule="COc1ccnc(C(=O)Nc2ccc(Oc3cc(Oc4ccccc4)ncn3)cc2)c1O [Compound 468]" recorded_endpoint="pest or weed control at 100 ppm" observed_result="25 to 74%"
molecule="CC1(C)CC(NC(=O)c2nscc2O)CC(C)(C)C1 [Compound 549]" recorded_endpoint="pest or weed control at 100 ppm" observed_result="25 to 74%"
molecule="Cc1cc(C)c(C(=O)N[C@H]2COC(=O)[C@H](Cc3ccccc3)[C@@H](OC(=O)C(C)C)[C@H](C)OC2=O)c(O)n1 [Compound 529]" recorded_endpoint="pest or weed control at 100 ppm" observed_result="25 to 74%"
molecule="CC1(C)CC(NC(=O)c2nccc(Cl)c2O)CC(C)(C)C1 [Compound 480]" recorded_endpoint="pest or weed control at 100 ppm" observed_result="< 25%"
molecule="COc1ccc(O)c(C(=O)NC2COC(=O)[C@H](Cc3ccccc3)[C@@H](OC(=O)C(C)C)[C@H](C)OC2=O)n1 (some centres unmarked) [Compound 481]" recorded_endpoint="pest or weed control at 100 ppm" observed_result="25 to 74%"

* * *

# System: Septoria tritici—SEPTTR
# procedure_details: Leaf Blotch of Wheat, in vivo whole plant, 24 Hour Protectant
# condition: Zymoseptoria tritici, 24 h, 100 ppm spray, 24 hour protectant, wheat; control of fungal infection vs untreated plants; read-out: SEPTTR in vivo 1 Day Protectant
recorded_endpoint: pest or weed control at 100 ppm

compound="CCCCC1(C)CC(NC(=O)c2nccc(OC)c2O)CC(C)(C)C1 (stereo not drawn)" recorded_endpoint="pest or weed control at 100 ppm" observed_result="25 to 74%"
compound=COc1ccc(CNC(=O)c2ncccc2O)cc1 recorded_endpoint="pest or weed control at 100 ppm" observed_result="< 25%"
compound="O=C(OC1CCC(NC(=O)c2ncccc2O)CC1)c1ccccc1 (stereo not drawn)" recorded_endpoint="pest or weed control at 100 ppm" observed_result="25 to 74%"
compound="COc1ccnc(C(=O)NC2CC3CCC2C3)c1O (stereo not drawn)" recorded_endpoint="pest or weed control at 100 ppm" observed_result="25 to 74%"
compound="CCCCC1(C)CCCC(NC(=O)c2nccc(OC)c2O)C1 (stereo not drawn)" recorded_endpoint="pest or weed control at 100 ppm" observed_result="25 to 74%"
compound="O=C(NC1CCC(O)CC1)c1ncccc1O (stereo not drawn)" recorded_endpoint="pest or weed control at 100 ppm" observed_result="< 25%"
compound=COc1ccnc(C(=O)N[C@H]2CC[C@H](Oc3ccc(C(F)(F)F)cc3)CC2)c1O recorded_endpoint="pest or weed control at 100 ppm" observed_result="25 to 74%"
compound=O=C(NCCc1ccc(Cl)cc1)c1ncccc1O recorded_endpoint="pest or weed control at 100 ppm" observed_result="25 to 74%"
compound="COc1ccnc(C(=O)N[C@@H]2CC3CC2C2C(=O)N(CC(C)C)C(=O)C32)c1O (stereo partly drawn)" recorded_endpoint="pest or weed control at 100 ppm" observed_result="25 to 74%"
compound=O=C(Nc1nccs1)c1ncccc1O recorded_endpoint="pest or weed control at 100 ppm" observed_result="< 25%"
compound="COc1ccnc(C(=O)NC2c3ccccc3CC2(C)C)c1O (stereo not drawn)" recorded_endpoint="pest or weed control at 100 ppm" observed_result="25 to 74%"
compound="CCC1(C)OCC(NC(=O)c2nccc(OC)c2O)CO1 (stereo not drawn)" recorded_endpoint="pest or weed control at 100 ppm" observed_result="< 25%"
compound="COc1ccnc(C(=O)NC2CC(c3ccco3)CC(C)(C)C2)c1O (stereo not drawn)" recorded_endpoint="pest or weed control at 100 ppm" observed_result="25 to 74%"
compound="COc1ccnc(C(=O)NC2C[C@H](C)C[C@H](c3ccccn3)C2)c1O (stereo partly drawn)" recorded_endpoint="pest or weed control at 100 ppm" observed_result="25 to 74%"
compound=Cc1cc(C)cc(NC(=O)c2ncccc2O)c1 recorded_endpoint="pest or weed control at 100 ppm" observed_result="< 25%"
compound=C[C@@H](NC(=O)c1ncccc1O)c1cccc2ccccc12 recorded_endpoint="pest or weed control at 100 ppm" observed_result="< 25%"
compound="COc1ccnc(C(=O)N[C@@H]2CC3CC2[C@H]2COC[C@@H]32)c1O (stereo partly drawn)" recorded_endpoint="pest or weed control at 100 ppm" observed_result="25 to 74%"
compound="CC(NC(=O)c1ncccc1O)c1ccccc1 (stereo not drawn)" recorded_endpoint="pest or weed control at 100 ppm" observed_result="< 25%"
compound=COc1ccnc(C(=O)NC/C=C(\C)CCC=C(C)C)c1O recorded_endpoint="pest or weed control at 100 ppm" observed_result="25 to 74%"
compound=O=C(Nc1cccc(C(F)(F)F)c1)c1ncccc1O recorded_endpoint="pest or weed control at 100 ppm" observed_result="< 25%"
compound=O=C(Nc1cccc(Cl)c1)c1ncccc1O recorded_endpoint="pest or weed control at 100 ppm" observed_result="< 25%"
compound=COc1ccnc(C(=O)NC2CC(C)(C)C(=O)C(C)(C)C2)c1O recorded_endpoint="pest or weed control at 100 ppm" observed_result="25 to 74%"
compound=COc1ccnc(C(=O)NCCCc2cccnc2)c1O recorded_endpoint="pest or weed control at 100 ppm" observed_result="25 to 74%"
compound="COc1ccnc(C(=O)NC2CCc3ccccc3C2=O)c1O (stereo not drawn)" recorded_endpoint="pest or weed control at 100 ppm" observed_result="25 to 74%"
compound=COc1ccnc(C(=O)NC2CCCCCCC2)c1O recorded_endpoint="pest or weed control at 100 ppm" observed_result="25 to 74%"
compound=COc1ccnc(C(=O)N[C@H]2CC[C@@H](Oc3ccc(C(F)(F)F)cc3)CC2)c1O recorded_endpoint="pest or weed control at 100 ppm" observed_result="25 to 74%"
compound=COc1ccnc(C(=O)NC2CCN(C(=O)c3ccccc3)CC2)c1O recorded_endpoint="pest or weed control at 100 ppm" observed_result="25 to 74%"
compound="COc1ccnc(C(=O)NC2CC(C)(C)CC(C)(C(=O)c3ccccc3)C2)c1O (stereo not drawn)" recorded_endpoint="pest or weed control at 100 ppm" observed_result="25 to 74%"
compound=COc1ccnc(C(=O)N[C@H]2CC(C)(C)[C@H](O)C(C)(C)C2)c1O recorded_endpoint="pest or weed control at 100 ppm" observed_result="25 to 74%"
compound="COc1ccnc(C(=O)N[C@H]2CC3OC2[C@H](C)[C@@H](OCc2ccccc2)[C@H]3C)c1O (stereo partly drawn)" recorded_endpoint="pest or weed control at 100 ppm" observed_result="< 25%"
compound="COc1ccnc(C(=O)NC2CC(C)(C)CC(C)(COCC(Cl)CCl)C2)c1O (stereo not drawn)" recorded_endpoint="pest or weed control at 100 ppm" observed_result="25 to 74%"
compound=COc1ccccc1CNC(=O)c1ncccc1O recorded_endpoint="pest or weed control at 100 ppm" observed_result="< 25%"
compound="COc1ccnc(C(=O)NC2CC(C(F)(F)F)CC(C(F)(F)F)C2)c1O (stereo not drawn)" recorded_endpoint="pest or weed control at 100 ppm" observed_result="25 to 74%"
compound="COc1ccnc(C(=O)N[C@H]2CO[C@@](C)(C(C)CC3=C(C)CCCC3(C)C)OC2)c1O (stereo partly drawn)" recorded_endpoint="pest or weed control at 100 ppm" observed_result="25 to 74%"
compound=O=C(Nc1ccc(Cl)cc1)c1ncccc1O recorded_endpoint="pest or weed control at 100 ppm" observed_result="< 25%"
compound=COc1ccnc(C(=O)N[C@@H]2CCCC[C@H]2SC)c1O recorded_endpoint="pest or weed control at 100 ppm" observed_result="25 to 74%"
compound="COc1ccnc(C(=O)NCC2C(C=C(C)C)C2(C)C)c1O (stereo not drawn)" recorded_endpoint="pest or weed control at 100 ppm" observed_result="25 to 74%"
compound="COc1ccnc(C(=O)NC2COC(C)C2)c1O (stereo not drawn)" recorded_endpoint="pest or weed control at 100 ppm" observed_result="< 25%"
compound=O=C(NCC1CCCCC1)c1ncccc1O recorded_endpoint="pest or weed control at 100 ppm" observed_result="< 25%"
